Consider the following binders; for each one, report its SKW3 WT vs KO ratio, anti-mFc-647.
# target.under.test: T1, human CD4 on cells (SKW3 cells; human PBMCs) (human, UniProt P01730 26-458)
# T1 construct: whole, on cells; SKW3 CD4 knockout cells served as the negative cell line in the primary screen; also called hCD4; huCD4
# experimental.protocol: FACS primary screen, hybridoma supernatant, SKW3 vs SKW3 CD4 KO cells;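 further: flow cytometry on mixed SKW3 and dye-labeled SKW3 CD4 knockout cells after 30 min at 4 °C with supernatant, ratio of binding signal on parental versus knockout cells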
Just the number, please.

Input line: Report SKW3 WT vs KO ratio, anti-mFc-647 for 75110_08M20A (antibody, V domains shown, Tested as non-clonal AlivaMab Mouse Kappa hybridoma supernatant (detected with anti-mouse Fc gamma and anti-human kappa)) VH: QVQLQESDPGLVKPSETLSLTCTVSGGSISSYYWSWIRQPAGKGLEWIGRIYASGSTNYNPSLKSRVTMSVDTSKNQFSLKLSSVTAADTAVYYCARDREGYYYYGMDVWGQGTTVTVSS VL: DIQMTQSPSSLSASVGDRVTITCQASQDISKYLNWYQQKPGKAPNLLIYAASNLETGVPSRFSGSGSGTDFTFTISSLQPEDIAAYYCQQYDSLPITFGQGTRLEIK
Output line: 8.8

Input line: Query SKW3 WT vs KO ratio, anti-mFc-647 for 75110_08G08A (antibody, V domains shown, Tested as non-clonal AlivaMab Mouse Kappa hybridoma supernatant (detected with anti-mouse Fc gamma and anti-human kappa)) VH: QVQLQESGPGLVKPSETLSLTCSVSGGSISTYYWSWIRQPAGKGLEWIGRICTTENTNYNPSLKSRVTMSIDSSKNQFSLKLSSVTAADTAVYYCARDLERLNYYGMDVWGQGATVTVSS VL: DIQMTQSPSSLSASVGDRVTITCQASQDISNYLNWYQQKPGIAPKLLIYDASNLETGVPSRFSGSGSGTDFTFTISSLQPEDIATYYCQQYDSLPITFGQGTRLEIK
Output line: 5.7

Input line: Tell me its SKW3 WT vs KO ratio, anti-mFc-647 given 75110_06K03A (antibody, V domains shown, Tested as non-clonal AlivaMab Mouse Kappa hybridoma supernatant (detected with anti-mouse Fc gamma and anti-human kappa)) VH: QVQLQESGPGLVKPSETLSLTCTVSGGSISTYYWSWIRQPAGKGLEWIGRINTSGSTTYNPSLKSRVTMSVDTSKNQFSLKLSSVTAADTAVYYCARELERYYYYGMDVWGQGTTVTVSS VL: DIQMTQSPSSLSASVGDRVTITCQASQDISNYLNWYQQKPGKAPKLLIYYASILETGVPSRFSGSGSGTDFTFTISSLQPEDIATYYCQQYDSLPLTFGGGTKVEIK as the entry.
Output line: 7.5

Input line: Using known records, supply SKW3 WT vs KO ratio, anti-mFc-647 for 75110_02N15A (antibody, V domains shown, Tested as non-clonal AlivaMab Mouse Kappa hybridoma supernatant (detected with anti-mouse Fc gamma and anti-human kappa)) VH: EVQLVESGGGLVQPGGSLRLSCAASGFTFSSYWMSWVRQAPGKGLEWVANINEDGNEKYYVDSVKGRFTISRDNAKNSLFLQMNSLRAEDTAVYFCAREGGQWLALDHWGQGALVTVSS VL: DIQMTQSPSSVSASVGDRVTITCRASQGISSWLAWYQQKPGKAPKFLISGASSLQSGVPSRFSGSGSGTDFTLTISSLQPEDFATYYCQQANSFPWTFGQGTKVEFK
Output line: 4.9

Input line: Please give measured SKW3 WT vs KO ratio, anti-mFc-647 of the following entry: 75110_08D24A (antibody, V domains shown, Tested as non-clonal AlivaMab Mouse Kappa hybridoma supernatant (detected with anti-mouse Fc gamma and anti-human kappa)) VH: QVQLQESGPGLVKPSETLSLTCTVSGGSISGFYWSWIRQPAGKGLEWIGRIYTSENTNYNPSLKSRVTMSVDTSKNQFSLKLSSVTAADTAVYYCARDREGYYYYGMDVWGQGTTVTVSS VL: DIQMTQSPSSLSASVGDRVTITCQASQDISNYLNWYQQKPGKAPKLLIYAASNLETGVPSRFSGSGSGTDFTFTISSLQPEDIATYYCQQYDSLPITFGQGTRLEIK
Output line: 4.1
